- Test system: PC-9
- assay summary: Cell anti-proliferation experiment (CTG)
- Type: cell-based
- condition: Homo sapiens, PC-9, 72 h, PC-9 (EGFR exon 19 deletion), number after the class symbol
- Description: H1975 has an EGFR: T790M/L858R double mutation, PC-9 has an EGFR exon 19 deletion, and HCC827 has an exon 19 deletion mutation. […] • A) Weighed approximately 2 mg the compound and calculated the required volume of DMSO according to the formula: Compound mass (mg) * Compound purity (%) / Compound molecular weight * 1000. • B) Placed the inoculated cell culture plate into an incubator and incubated for about 24 hours. […]
measurement label: pIC50
In simple prose, pIC50 is minus the logarithm base ten of a concentration in moles per litre.

Worked examples follow.
CCc1cc(Nc2ncc(Cl)c(Nc3ccccc3P(C)(C)=O)n2)c(OC)cc1N1CCN(C(=O)CN2CCC(c3ccc4c(N5CCC(=O)NC5=O)nn(C)c4c3)C(F)(F)C2)CC1 (stereo not shown) [TC-215]	6.19
CCc1cc(Nc2ncc(Cl)c(Nc3ccccc3P(C)(C)=O)n2)c(OC)cc1N1CCN(C(=O)CN2CCC(c3cc4c(cc3F)c(N3CCC(=O)NC3=O)nn4C)C(F)(F)C2)CC1 (stereo not shown) [TC-157]	6.46
CCc1cc(Nc2ncc(Cl)c(Nc3ccccc3P(C)(C)=O)n2)c(OC)cc1N1CCC2(CC1)CN(C(=O)CN1CCC(c3cc4c(cc3F)c(N3CCC(=O)NC3=O)nn4C)C(F)(F)C1)C2 (stereo not shown) [TC-225]	6.36

-- ask Field request: pIC50 | item: CCc1cc(Nc2ncc(Cl)c(Nc3ccccc3P(C)(C)=O)n2)c(OC)cc1N1CC2(CCN(C(=O)CN3CCC(c4cc5c(cc4F)c(N4CCC(=O)NC4=O)nn5C)C(F)(F)C3)CC2)C1 (stereo not shown) [TA-023]
-- reply 6.34

* * *

The following compounds are listed with their measured Tmax values.
- assay summary: Pharmacokinetic tests in male SD rats
- Type: in vivo
- condition: rat, oral gavage (po), 10 mg/kg, plasma
Give the value in h but do not write h after it.

CCc1cc(Nc2ncc(Br)c(Nc3ccccc3P(C)(C)=O)n2)c(OC)cc1N1CCN(C(=O)CN2CCC(c3cc4c(cc3F)c(N3CCC(=O)NC3=O)nn4C)C(F)(F)C2)CC1 (stereo not drawn)	2.67
CCc1cc(Nc2ncc(Cl)c(Nc3ccccc3C(=O)NC)n2)c(OC)cc1N1CCN(C(=O)CN2CCC(c3cc4c(cc3F)c(N3CCC(=O)NC3=O)nn4C)C(F)(F)C2)CC1 (stereo not drawn)	2

-- ask # get_value(readout='Tmax', item= CCc1cc(Nc2ncc(Br)c(Nc3ccccc3P3(=O)CCCC3)n2)c(OC)cc1N1CC2(CCN(C(=O)CN3CCC(c4cc5c(cc4F)c(N4CCC(=O)NC4=O)nn5C)C(F)(F)C3)CC2(F)F)C1 (stereo not drawn) )
-- reply 4

* * *

Below is a list of entries, each paired with its recorded MRT last value.
- assay summary: Pharmacokinetic tests in male SD rats
- Assay type: in vivo
- condition: rat, oral gavage (po), 10 mg/kg, plasma
All answers are understood in h, so give the number only.

Below, each entry is followed by its recorded MRT last result.
CCc1cc(Nc2ncc(Cl)c(Nc3ccccc3P(C)(C)=O)n2)c(OC)cc1N1CCN(C(=O)CN2CCC(c3cc4c(cc3F)c(N3CCC(=O)NC3=O)nn4C)C(F)(F)C2)CC1 (centres unmarked)	5.52
CCc1cc(Nc2ncc(Cl)c(Nc3ccccc3P(C)(C)=O)n2)c(OC)cc1N1CCN(CCN2CCC(c3cc4c(cc3F)c(N3CCC(=O)NC3=O)nn4C)C(F)(F)C2)CC1 (centres unmarked)	7.79
CCc1cc(Nc2ncc(Cl)c(Nc3ccccc3P(C)(C)=O)n2)c(OC)cc1N1CCN(C(=O)CN2CCC(c3cc4c(cc3F)c(N3CCC(=O)NC3=O)nn4C)CC2)CC1	6.22

-- ask I am curious: what MRT last value has been reported for CCc1cc(Nc2ncc(Br)c(Nc3ccccc3P(C)(C)=O)n2)c(OC)cc1N1CCN(C(=O)CN2CCC(c3cc4c(cc3F)c(N3CCC(=O)NC3=O)nn4C)C(F)(F)C2)CC1 (centres unmarked) ?
-- reply 6.02

-- ask Input "CCc1cc(Nc2ncc(Cl)c(Nc3ccccc3P(C)(C)=O)n2)c(OC)cc1N1CC2(CCN(C(=O)CN3CCC(c4cc5c(cc4F)c(N4CCC(=O)NC4=O)nn5C)CC3)CC2)C1"
-- reply 5.98

Data origin: patent EP4813979A1
